# IC50 annotations
Molecular target: human C5aR(CD88) (Homo sapiens)
Construct: expressed in transfected cells; host or cells: rat basophilic leukemia cells (RBL)
Sequence (P21730 1-350): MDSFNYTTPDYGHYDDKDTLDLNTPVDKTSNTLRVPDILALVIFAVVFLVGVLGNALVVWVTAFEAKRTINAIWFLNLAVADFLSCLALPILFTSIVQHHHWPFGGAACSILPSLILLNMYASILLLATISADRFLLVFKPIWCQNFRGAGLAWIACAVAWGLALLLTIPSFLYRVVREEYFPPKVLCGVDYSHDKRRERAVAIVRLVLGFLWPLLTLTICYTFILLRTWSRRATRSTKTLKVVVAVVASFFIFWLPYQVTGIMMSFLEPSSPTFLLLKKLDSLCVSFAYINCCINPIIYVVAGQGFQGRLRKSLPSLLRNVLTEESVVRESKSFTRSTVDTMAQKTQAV
Experiment: Determination of the IC50 value in an enzyme release assay (functional assay, antagonistic activity)
Type: cell-based
Conditions: antagonistic activity; IC50 group in enzyme release assay, RBL cells expressing human C5aR(CD88); read-out: activity (group)
Positions of bridges follow the written chain, without caps; N, C: chain ends. Non-standard residues stand in square brackets, D forms with d. Residues, ends and D or L forms follow the SMILES beside them. Ala(1-amidino-4-piperidyl) = N=C(N)N1CCC(C[C@H](N)C(=O)O)CC1; Phe(2-CF3) = N[C@@H](Cc1ccccc1C(F)(F)F)C(=O)O; Dip = N[C@H](C(=O)O)C(c1ccccc1)c1ccccc1; Bta = N[C@@H](Cc1csc2ccccc12)C(=O)O; d(hCha) = N[C@H](CCC1CCCCC1)C(=O)O; d(hLeu) = CC(C)CC[C@@H](N)C(=O)O; dCha = N[C@H](CC1CCCCC1)C(=O)O; Orn = NCCC[C@H](N)C(=O)O; Aze = O=C(O)[C@@H]1CCN1

Example entries begin here.
>>> result("CC(=O)N[C@H](C(=O)N[C@@H](CCCN)C(=O)N1CCC[C@H]1C(=O)N[C@H](CC1CCCCC1)C(=O)N[C@@H](Cc1c[nH]c2ccccc12)C(=O)N[C@@H](Cc1ccccc1)C(N)=O)C(c1ccccc1)c1ccccc1 [Compound 71, Ac-Ebw-Orn-Pro-cha-Trp-Phe-NH2] (Ac-[Dip][Orn]P[dCha]WF-NH2)")
"200 to 2000 nM"
>>> result("CC(=O)N[C@@H](Cc1ccccc1)C(=O)N[C@H]1CCCNC(=O)[C@H](CC2CCN(C(=N)N)CC2)NC(=O)[C@H](Cc2c[nH]c3ccccc23)NC(=O)[C@@H](CC2CCCCC2)NC(=O)[C@@H]2CCCN2C1=O [compound 30] (Ac-F[Orn]P[dCha]W[Ala(1-amidino-4-piperidyl)]; lactam 2-C)")
"> 2000 nM"
>>> result("CC(=O)NCC(=O)N[C@@H](Cc1ccccc1)C(=O)N[C@@H](CCCN)C(=O)N1CC[C@H]1C(=O)N[C@H](CCC1CCCCC1)C(=O)N[C@@H](Cc1csc2ccccc12)C(=O)N[C@@H](Cc1ccccc1)C(N)=O [Compound 156, Ac-Gly-Phe-Orn-Aze-hch-Bta-Phe-NH2] (Ac-GF[Orn][Aze][d(hCha)][Bta]F-NH2)")
"50 to 200 nM"
>>> result("CC(=O)N[C@@H](Cc1ccccc1)C(=O)N[C@@H](CCCN)C(=O)N1CCC[C@H]1C(=O)N[C@H](CCC(C)C)C(=O)N[C@@H](Cc1ccccc1C(F)(F)F)C(=O)N[C@@H](Cc1ccccc1)C(N)=O [Compound 296, Ac-Phe-Orn-Pro-hle-Otf-Phe-NH2] (Ac-F[Orn]P[d(hLeu)][Phe(2-CF3)]F-NH2)")
"50 to 200 nM"
>>> result("CC(=O)N[C@@H](Cc1ccccc1)C(=O)N[C@@H](CCCNC(=N)N)C(=O)N1CCC[C@H]1C(=O)N[C@H](CC1CCCCC1)C(=O)N[C@@H](Cc1csc2ccccc12)C(=O)N[C@@H](Cc1ccccc1)C(N)=O [Compound 122, Ac-Phe-Arg-Pro-cha-Bta-Phe-NH2] (Ac-FRP[dCha][Bta]F-NH2)")
"20 to 50 nM"

Request: # get_value(readout= IC50, system= human C5aR(CD88) (Homo sapiens)) for CC(=O)N[C@@H](Cc1ccccc1)C(=O)N[C@@H](CCCN)C(=O)N[C@@H](CO)C(=O)N[C@H](CC1CCCCC1)C(=O)N[C@@H](Cc1c[nH]c2ccccc12)C(=O)N[C@@H](Cc1ccccc1)C(N)=O [Compound 108, Ac-Phe-Orn-Ser-cha-Trp-Phe-NH2] (Ac-F[Orn]S[dCha]WF-NH2)
Result: 20 to 50 nM

Request: Next compound: CC(=O)N[C@@H](Cc1ccccc1)C(=O)N[C@@H](CCCNC(=N)N)C(=O)N1CCC[C@H]1C(=O)N[C@H](CC1CCCCC1)C(=O)N[C@@H](Cc1c[nH]c2ccccc12)C(=O)N[C@@H](Cc1ccccc1)C(N)=O [Compound 104, Ac-Phe-Arg-Pro-cha-Trp-Phe-NH2] (Ac-FRP[dCha]WF-NH2)
Result: 50 to 200 nM
